Recorded IC50 values (POLRMT (Homo sapiens (Human), UniProt O00411)) are given below.

Recorded IC50, per entry:
[[record]]
compound = "Cc1ccccc1-c1ccnc2cc(CC(=O)N3CCOCC3)ccc12 [Example 36]"
valuereported = "> 100 µM"

[[record]]
compound = "Cc1ccccc1-c1ccnc2cc(CC(=O)N3CCN(C)CC3)ccc12 [Example 39]"
valuereported = "> 100 µM"


Form field: reported IC50 of Cc1ccccc1-c1ccnc2cc(CN3CCCC3=O)ccc12 [Example 25]
> 100 µM
